Test system: SPR-c-kit2 (DNA, G4) GGGCGGGCGCGAGGGAGGGG
Assay: SPR
Details: 100 mM K+ (KCl); 50 mM Tris-HCl, pH 7.2, 25 °C; Langmuir kinetic fit
measurement.label: KD (µM)

compound_string=CCN(CC)CCCOc1ccc(-c2nc(-c3cc4ccc(N(CC)CC)cc4oc3=O)[nH]c2-c2ccc(OCc3cn(CCN4CCCCC4)nn3)cc2)cc1 quantitative_result=1.8
compound_string=CCN(CC)CCCOc1ccc(-c2nc(-c3cc4ccc(N(CC)CC)cc4oc3=O)[nH]c2-c2ccc(OCc3cn(CCCN4CCN(C)CC4)nn3)cc2)cc1 quantitative_result=2.0
compound_string=CCN(CC)CCCOc1ccc(-c2nc(-c3cc4ccc(N(CC)CC)cc4oc3=O)[nH]c2-c2ccc(OCc3cn(CCN(C)C)nn3)cc2)cc1 quantitative_result=2.7
compound_string=CCN(CC)CCCOc1ccc(-c2nc(-c3cc4ccc(N(CC)CC)cc4oc3=O)[nH]c2-c2ccc(OCc3cn(CCCN(C)C)nn3)cc2)cc1 quantitative_result=4.3
compound_string=C#CCOc1ccc(-c2[nH]c(-c3cc4ccc(N(CC)CC)cc4oc3=O)nc2-c2ccc(OCCCN(CC)CC)cc2)cc1 quantitative_result=13.9
compound_string=CCN(CC)CCCOc1ccc(-c2nc(-c3cc4ccc(N(CC)CC)cc4oc3=O)[nH]c2-c2ccc(OCc3cn(CCC(=O)O)nn3)cc2)cc1 quantitative_result=6.1
compound_string=CCN(CC)CCCOc1ccc(-c2nc(-c3cc4ccc(N(CC)CC)cc4oc3=O)[nH]c2-c2ccc(OCc3cn(CCCO)nn3)cc2)cc1 quantitative_result=3.1
compound_string=CCN(CC)CCCOc1ccc(-c2nc(-c3cc4ccc(N(CC)CC)cc4oc3=O)[nH]c2-c2ccc(OCc3cn(CCN4CCOCC4)nn3)cc2)cc1 quantitative_result=4.8
